B1: TPR 5TU (parent)
chain: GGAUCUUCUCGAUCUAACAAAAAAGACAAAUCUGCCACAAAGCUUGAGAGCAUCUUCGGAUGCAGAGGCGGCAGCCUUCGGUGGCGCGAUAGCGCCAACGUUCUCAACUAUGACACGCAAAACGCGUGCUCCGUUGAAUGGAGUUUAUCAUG

# Variants of: B1
# experiment description: polymerase ribozyme fitness, log enrichment relative to wild type (log ratio); higher = more active; in vitro selection for triplet polymerase activity
Fewer inactive variants are shown than the library holds.
assay endpoint: polymerase ribozyme fitness (log ratio)
// no unit, no text: just the number

Return the recorded polymerase ribozyme fitness (log ratio) value; entry: U56G U148G
-3.89

For the variant A22U U56A , give its reported polymerase ribozyme fitness (log ratio).
-0.239

# return recorded polymerase ribozyme fitness (log ratio) for input A17G A21G A52U U56A A91G
-4

# return recorded polymerase ribozyme fitness (log ratio) for entry C69G C93U
-3.1

Kindly indicate its recorded polymerase ribozyme fitness (log ratio). Item: U31C U56G C123A G136C
-2.61

Tell me its polymerase ribozyme fitness (log ratio) given C72U A89G C95A as the entry.
-1.39

Please report polymerase ribozyme fitness (log ratio) for the following variant: U55A U82G C96G C116U G140C
-4.17

Give the measured polymerase ribozyme fitness (log ratio) for A20G G46A U146A
-1.3

Annotate the variant G62A G81U C95A G126U with its measured polymerase ribozyme fitness (log ratio).
0.493

Retrieve polymerase ribozyme fitness (log ratio) measured for G48U U146G and print it.
-1.42

Return polymerase ribozyme fitness (log ratio) (reported value) for this variant: U56A U61A C114G
-3.96

For the variant C38A U56A G128U , report polymerase ribozyme fitness (log ratio).
-3.69

Given the variant A12U A23U U45C A97G A98U C131G C132U , write its reported polymerase ribozyme fitness (log ratio).
-4.12

Read the entry A37G U145G and write its reported polymerase ribozyme fitness (log ratio).
-2.35

// fetch polymerase ribozyme fitness (log ratio) given entry C69A G92U
-1.15

Return value of polymerase ribozyme fitness (log ratio) for input C43G C95U C96A , no commentary.
-4.15

Report polymerase ribozyme fitness (log ratio), nothing else, for this variant: C75G C93A A113U A142G
-4.17

Consider the variant U53C A150G . State its measured polymerase ribozyme fitness (log ratio).
-1.01

For the variant U4C G11U U53C , give its measured polymerase ribozyme fitness (log ratio) value.
-2.27

Check the records and state polymerase ribozyme fitness (log ratio) for C87U A122U
-0.5

Identify measured polymerase ribozyme fitness (log ratio) associated with G58A A147U
0.692

Please supply the value of reported polymerase ribozyme fitness (log ratio) for the item A16U A20U U146A
-3.95

State its polymerase ribozyme fitness (log ratio) for this variant: C87U U127A
-3.2

Dear colleague, please send me the reported polymerase ribozyme fitness (log ratio) for C132U U139G G140A when you can.
1.22

Answer with reported polymerase ribozyme fitness (log ratio) of A147U U148A
-2.81

Output polymerase ribozyme fitness (log ratio) of U56A A107U
-2.87

Using the record for A20C U56A , state its measured polymerase ribozyme fitness (log ratio).
-0.524

Indicate its recorded polymerase ribozyme fitness (log ratio); the variant in question is C96G A97U C118A
-3.08

Entry A19G A40U G62U A121U G141U needs its polymerase ribozyme fitness (log ratio) filled in; supply it.
-1.46

State its polymerase ribozyme fitness (log ratio): A40U C76U
-0.102

Tell me its polymerase ribozyme fitness (log ratio) given C85G C125A as the entry.
-2.37

Give the reported polymerase ribozyme fitness (log ratio) for this variant. U56G A97C
-1.65

For A91G C114A C116U A137C , write its polymerase ribozyme fitness (log ratio).
-3.79

Supply polymerase ribozyme fitness (log ratio) value. Item: C54U C96A A97G
-1.12

Return the recorded polymerase ribozyme fitness (log ratio) value; entry: U53G G141C
-2.53

Tell me its polymerase ribozyme fitness (log ratio) given A37G C51U as the entry.
-2.54

Using the record for U53A G58A C93U C116U , state its measured polymerase ribozyme fitness (log ratio).
-0.438

Input A40U C105G , output reported polymerase ribozyme fitness (log ratio).
-0.905

Indicate the recorded polymerase ribozyme fitness (log ratio) value for this variant: A20G A52C
-1.28

Name the recorded polymerase ribozyme fitness (log ratio) of the variant listed here: C85U U134C
-1.76

Return polymerase ribozyme fitness (log ratio) for the following variant: C87U C116A G117C C118G
-1.82

Supply measured polymerase ribozyme fitness (log ratio) of U15G A21C G83U A89G C96G U127A in your reply.
-4.13
